- Assayed target: T1, human GARP-TGF-β1 complex (recombinant complex of human GARP and latent human TGF-β1) (human, UniProt Q14392 20-627; P01137 30-278; P01137 279-390)
- T1 construct: also called huGARP-TGF-β1; hGARP-TGF-β1
- T1 sequence (Q14392 20-627 limits assumed, chain 1 of 3): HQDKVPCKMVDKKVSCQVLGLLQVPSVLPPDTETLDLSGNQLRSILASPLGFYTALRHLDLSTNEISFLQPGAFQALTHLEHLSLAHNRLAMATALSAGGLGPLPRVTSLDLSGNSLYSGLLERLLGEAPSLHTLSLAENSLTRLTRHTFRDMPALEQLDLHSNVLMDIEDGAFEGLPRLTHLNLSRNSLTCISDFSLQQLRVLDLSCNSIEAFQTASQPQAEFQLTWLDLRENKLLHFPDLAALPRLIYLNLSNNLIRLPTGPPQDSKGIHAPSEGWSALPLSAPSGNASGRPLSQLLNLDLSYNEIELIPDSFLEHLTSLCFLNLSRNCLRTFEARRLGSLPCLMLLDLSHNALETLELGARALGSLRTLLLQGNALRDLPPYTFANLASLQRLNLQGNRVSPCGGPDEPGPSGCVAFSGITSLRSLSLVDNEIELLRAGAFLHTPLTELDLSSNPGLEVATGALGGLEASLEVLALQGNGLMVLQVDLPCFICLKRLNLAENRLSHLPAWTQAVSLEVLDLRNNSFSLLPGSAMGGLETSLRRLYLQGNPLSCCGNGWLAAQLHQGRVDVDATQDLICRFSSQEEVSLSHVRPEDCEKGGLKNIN
- T1 sequence (P01137 30-278 limits assumed, chain 2 of 3): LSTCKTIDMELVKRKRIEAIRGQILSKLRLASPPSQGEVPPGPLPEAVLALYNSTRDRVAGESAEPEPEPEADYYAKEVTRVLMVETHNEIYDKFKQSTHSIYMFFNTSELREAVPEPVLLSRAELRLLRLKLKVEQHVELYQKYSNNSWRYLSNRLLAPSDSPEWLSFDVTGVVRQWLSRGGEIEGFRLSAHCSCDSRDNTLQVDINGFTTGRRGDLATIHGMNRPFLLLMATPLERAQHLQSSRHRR
- T1 sequence (P01137 279-390 limits assumed, chain 3 of 3): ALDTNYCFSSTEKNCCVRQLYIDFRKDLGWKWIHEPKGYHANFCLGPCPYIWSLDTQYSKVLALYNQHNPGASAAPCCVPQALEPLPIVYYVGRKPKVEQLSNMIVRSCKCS
- Experimental protocol: SPR Biacore T200, CM5 chip coated with the antibody at 200 RU, complex in solution
Kd strictly less than 2 nM = Y. Otherwise N.

- Binder: "39B6-ANR IgG4 S228P (antibody, V domains shown, Variant of 39B6-A in IgG4 S228P format; Positions are Kabat-type) VH: QVQLVQPGAEVRKPGASVKVSCKASGYRFTSYYIDWVRQAPGQGLEWMGRIDPEDAGTKYAQKFQGRVTMTADTSTSTVYVELSSLRSEDTAVYYCARNRWETVVVGDLMYEYEYWGQGTLVTVSS VL: DIQMTQSPSSLSASVGDRVTITCQASQSISSYLAWYQQKPGQAPKILIYGASRLKTGVPSRFSGSGSGTSFTLTISSLEPEDAATYYCQQYASVPVTFGQGTKVEIKR"
  Label class: "Y"

*Q* Hello, I'm reviewing records and need to know if Kd of 39B6-A IgG4 S228P (antibody, V domains shown, 39B6 with G55A in HCDR2, in the human IgG4 S228P backbone; also called 39B6-ANE) VH: QVQLVQPGAEVRKPGASVKVSCKASGYRFTSYYIDWVRQAPGQGLEWMGRIDPEDAGTKYAQKFQGRVTMTADTSTSTVYVELSSLRSEDTAVYYCARNEWETVVVGDLMYEYEYWGQGTLVTVSS VL: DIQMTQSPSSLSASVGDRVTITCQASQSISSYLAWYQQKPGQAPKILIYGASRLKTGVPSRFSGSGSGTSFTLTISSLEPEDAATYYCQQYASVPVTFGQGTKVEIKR is below 2 nM. Could you check?
*A* Y

*Q* Is it true that Kd reported for 39B6-AEE IgG4 S228P (antibody, V domains shown) VH: QVQLVQPGAEVRKPGASVKVSCKASGYRFTSYYIDWVRQAPGQGLEWMGRIDPEDAGTKYAQKFQGRVTMTADTSTSTVYVELSSLRSEDTAVYYCAREEWETVVVGDLMYEYEYWGQGTLVTVSS VL: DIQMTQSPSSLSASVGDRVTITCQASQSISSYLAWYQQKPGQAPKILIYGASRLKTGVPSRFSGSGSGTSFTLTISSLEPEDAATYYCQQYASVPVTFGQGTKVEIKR is less than 2 nM?
*A* N

*Q* Would you kindly verify if Kd of 39B6-AYE (ARGX-115), IgG4 S228P (antibody, V domains shown) VH: QVQLVQPGAEVRKPGASVKVSCKASGYRFTSYYIDWVRQAPGQGLEWMGRIDPEDAGTKYAQKFQGRVTMTADTSTSTVYVELSSLRSEDTAVYYCARYEWETVVVGDLMYEYEYWGQGTLVTVSS VL: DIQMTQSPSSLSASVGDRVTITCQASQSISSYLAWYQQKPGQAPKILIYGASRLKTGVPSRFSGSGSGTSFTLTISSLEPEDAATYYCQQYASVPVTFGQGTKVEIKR is strictly less than 2 nM?
*A* Y

*Q* Dear colleague, could you confirm whether Kd of 39B6-AVE IgG4 S228P (antibody, V domains shown, Variant of 39B6-A in IgG4 S228P format; Positions are Kabat-type) VH: QVQLVQPGAEVRKPGASVKVSCKASGYRFTSYYIDWVRQAPGQGLEWMGRIDPEDAGTKYAQKFQGRVTMTADTSTSTVYVELSSLRSEDTAVYYCARVEWETVVVGDLMYEYEYWGQGTLVTVSS VL: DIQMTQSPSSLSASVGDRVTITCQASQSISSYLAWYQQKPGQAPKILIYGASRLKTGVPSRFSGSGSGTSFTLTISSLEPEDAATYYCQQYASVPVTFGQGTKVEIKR falls below 2 nM? Thanks.
*A* Y
